Data origin: paper PMC4890880

system: Plasmodium berghei (Pb-Luc) exoerythrocytic-stage parasites; details: concentration 0.00457247, second series
We label by threshold. Values of normalised signal at concentration 0.00457247 (second series) strictly beneath 0.9 are true. Values of 0.9 and up are false.

# structure-smiles-string, experimental-target, assigned-category
records = [
    ("C[C@H](CO)N1C[C@H](C)[C@@H](CN(C)S(=O)(=O)c2ccc(F)cc2)OCCCC[C@H](C)Oc2ccc(N(C)C)cc2C1=O", "Plasmodium berghei (Pb-Luc) exoerythrocytic-stage parasites", "true"),
    ("COc1ccccc1S(=O)(=O)N(C)C[C@@H]1OCc2ccccc2-c2ccccc2C(=O)N([C@H](C)CO)C[C@@H]1C", "Plasmodium berghei (Pb-Luc) exoerythrocytic-stage parasites", "true"),
    ("O=C(NCc1ccc2c(c1)OCO2)[C@@H]1[C@@H](CO)[C@@H]2Cn3c(cccc3=O)[C@H]1N2Cc1cncnc1", "Plasmodium berghei (Pb-Luc) exoerythrocytic-stage parasites", "true"),
    ("C[C@H]1CCCCO[C@@H](CN(C)S(=O)(=O)c2ccc(F)cc2)[C@@H](C)CN([C@@H](C)CO)C(=O)c2cc(N(C)C)ccc2O1", "Plasmodium berghei (Pb-Luc) exoerythrocytic-stage parasites", "false"),
    ("CC(C)[C@@H]1COCc2cnnn2CCC[C@H](C)C(=O)N1", "Plasmodium berghei (Pb-Luc) exoerythrocytic-stage parasites", "false"),
    ("C[C@@H]1CCCCO[C@@H](CN(C)S(=O)(=O)c2ccc(F)cc2)[C@H](C)CN([C@H](C)CO)C(=O)c2cc(N(C)C)ccc2O1", "Plasmodium berghei (Pb-Luc) exoerythrocytic-stage parasites", "false"),
    ("COc1ccc(NC(=O)N(C)C[C@H]2Oc3c(NC(=O)CCCCCC(=O)Nc4ccccc4N)cccc3C(=O)N([C@@H](C)CO)C[C@H]2C)cc1", "Plasmodium berghei (Pb-Luc) exoerythrocytic-stage parasites", "true"),
    ("COc1ccc(CNC(=O)C[C@H]2CC[C@@H](NC(=O)CN(C)C)[C@H](CO)O2)cc1", "Plasmodium berghei (Pb-Luc) exoerythrocytic-stage parasites", "false"),
    ("O=C(C1CCOCC1)N1C[C@@H]2[C@H](c3ccccc31)[C@H](CO)N2C(=O)Cc1ccccn1", "Plasmodium berghei (Pb-Luc) exoerythrocytic-stage parasites", "true"),
    ("COc1ccc2c3c([nH]c2c1)[C@H](CO)N(Cc1ccccc1)CC31CN(C(=O)c2ccccn2)C1", "Plasmodium berghei (Pb-Luc) exoerythrocytic-stage parasites", "false"),
]

* * *

Measured inhibition at 1 µM, listed per entry.
system: Plasmodium cynomolgi exoerythrocytic-stage small (hypnozoites) and large (liver stage schizonts) parasites; assay: P. cynomolgi liver assay in primary hepatocytes; settings: Plasmodium cynomolgi, Hepatocyte, read-out: % inhibition normalized to untreated control, Small
experimental-readout: inhibition at 1 µM (%)

# molecule, recorded-result
rows = [
    ("COc1ccccc1CNC(=O)CCn1c(=O)[nH]c2ccsc2c1=O", 11),
    ("COc1ccc(C2=C(c3ccc(OC)cc3)C3(c4ccccc4)C(=O)C2(c2ccccc2)C2C(=O)N(c4ccc(C)cc4)C(=O)C23)cc1 (stereo not drawn)", 19),
    ("O=C(Nc1ccc(-c2nc3cc(NC(=O)c4ccc(Cl)cc4)ccc3[nH]2)cc1)c1ccc(Cl)cc1", 11),
    ("COc1cccc(C=Cc2nc(=O)c3ccccc3o2)c1OC", 16),
    ("O=C(Nc1cccc(C(F)(F)F)c1)c1cc(Cl)ccc1O", 34),
    ("Brc1ccc(Nc2nc3ccccc3nc2Nc2ccc(Br)cc2)cc1", 20),
    ("COc1cc(NC(C)CCCN)c2ncccc2c1 (stereo not drawn) [Primaquine, reference compound]", 19),
    ("COc1ccccc1CNC(=O)CCn1c(=O)[nH]c2ccccc2c1=O", -13),
    ("Cc1ccc(N2C3c4ccccc4N(S(=O)(=O)c4ccc(C)cc4)C2c2ccccc2N3S(=O)(=O)c2ccc(C)cc2)cc1", -25),
]
